ASSAYED TARGET: RORγ ligand-binding domain (Homo sapiens, UniProt P51449)
Construct: Gal4 (galactose-responsive transcription factor); expressed in transfected cells; host or cells: HEK293, transient co-transfection
Sequence (P51449 269-508 limits assumed): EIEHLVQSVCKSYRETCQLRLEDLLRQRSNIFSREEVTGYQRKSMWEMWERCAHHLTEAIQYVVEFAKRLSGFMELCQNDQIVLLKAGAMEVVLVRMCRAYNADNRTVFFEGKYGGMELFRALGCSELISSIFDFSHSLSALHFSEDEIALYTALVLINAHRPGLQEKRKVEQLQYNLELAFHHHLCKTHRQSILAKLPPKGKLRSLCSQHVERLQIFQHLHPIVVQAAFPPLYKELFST
ASSAY PROTOCOL: RORγ Reporter Assay (Gal4)
Format: cell-based
CONDITION DETAILS: HEK293 cells, luciferase reporter, 24 h incubation, absolute IC50; read-out: IC50
VALUE KIND: IC50

get_value(item= CC(C)N(Cc1ccc(C(F)(F)F)cc1)c1ncnc2c1ccn2C[C@@H]1CCN(CC(N)=O)C[C@H]1O (racemic) [Example P6-25] , readout=IC50) returns 15 nM

# IC50 of NC(=O)CN1CC[C@@H](Cn2ccc3c(N(Cc4ccc(-n5cccn5)cc4)C4CC4)ncnc32)[C@H](O)C1 (relative stereo) = 8.5 nM

NC(=O)CN1CC[C@@H](Cn2cc(F)c3c(N(Cc4ccc(C(F)(F)F)cc4)C4CC4)ncnc32)[C@H](O)C1 (single isomer, unassigned) [Example P6-14-2] has a reported IC50 of 1 nM

Memo: NC(=O)CN1CC[C@@H](Cn2ccc3c(N(Cc4ccc(C(F)(F)F)cn4)C4CC4)ncnc32)[C@H](O)C1 (single isomer, unassigned) [Example P6-23-1] , reported IC50: 9.9 nM

Value of measured IC50 for the entry `CC(C)(C(N)=O)N1CCC(Cn2cnc3c(N(Cc4ccc(C(F)(F)F)cc4)C4CC4)ncnc32)CC1` : > 1000 nM

Record summary for NC(=O)CN1CC[C@@H](Cn2cc(F)c3c(N(Cc4ccc(C(F)(F)F)cc4)C4CC4)ncnc32)[C@H](O)C1 (racemic) [Example P6-14] : reported IC50 = 1 nM

----------
ASSAYED TARGET: RORγ ligand-binding domain (Homo sapiens)
Construct: Gal4 (galactose-responsive transcription factor); expressed in transfected cells; host or cells: HEK293, transient co-transfection
ASSAY PROTOCOL: RORγ Reporter Assay (Gal4)
Type: cell-based
CONDITION DETAILS: HEK293 cells, luciferase reporter, 24 h incubation, absolute IC50; read-out: IC50
VALUE KIND: IC50

Input NC(=O)CN1CC[C@@H](Cn2ccc3c(N4CCOC[C@@H]4c4ccc(C(F)(F)F)cc4)ncnc32)[C@H](O)C1 (single isomer, unassigned) [Example P6-01-1] . Output IC50: 12 nM

Entry NC(=O)CN1CC[C@@H](Cn2ccc3c(N(Cc4ccc(C(F)(F)F)cn4)C4CC4)ncnc32)[C@H](O)C1 (single isomer, unassigned) [Example P6-23-2] — recorded IC50 = 15 nM

Kindly note the recorded IC50 for NC(=O)CN1CC[C@@H](Cn2cnc3c(N(Cc4ccc(C(F)(F)F)cc4)C4CC4)ncnc32)[C@H](O)C1 (single isomer, unassigned) [Example P6-26-2] , which is 5 nM

Reported IC50 for CCN(Cc1ccc(C(F)(F)F)cn1)c1ncnc2c1ccn2C[C@@H]1CCN(CC(N)=O)C[C@H]1O (relative stereo) was 12 nM

Reported IC50 of CCN(Cc1ccc(C(F)(F)F)cn1)c1ncnc2c1c(F)cn2C[C@@H]1CCN(CC(N)=O)C[C@H]1O (relative stereo) : 8.6 nM

// recorded IC50 for NC(=O)CN1CC[C@@H](Cn2ccc3c(N(Cc4ccc(C(F)(F)F)cn4)C4CC4)ncnc32)[C@H](F)C1 (single isomer, unassigned) [Example K8-3-2] : 22 nM

The molecule NC(=O)CN1CC[C@@H](Cn2ccc3c(N(Cc4ccc(C(F)(F)F)cc4)C4CC4)ncnc32)[C@H](F)C1 (single isomer, unassigned) [Example K8-2-2] showed IC50 equal to 3.1 nM

Form: molecule = CCN(Cc1ccc(C(F)(F)F)cc1F)c1ncnc2c1ccn2C[C@@]1(O)CCN(CC(N)=O)C[C@@H]1O (single isomer, unassigned) [Example L5-3-1-1] ; IC50 = 3 nM

Per the records, this molecule ( CCN(Cc1ccc(C(F)(F)F)cc1F)c1ncnc2c1ccn2C[C@@]1(O)CCN(CC(N)=O)C[C@@H]1O (racemic) [Example L5-3-1] ) has IC50 equal to 63 nM

For this molecule ( CCN(Cc1ccc(C(F)(F)F)cc1)c1ncnc2c1ccn2C[C@@H]1CCN(CC(N)=O)C[C@H]1O (racemic) [Example P6-24] ), measured IC50 is 4.6 nM

// field: IC50; key: NC(=O)CN1CC[C@@H](Cn2ccc3c(N4CCOC[C@@H]4c4ccc(C(F)(F)F)cc4)ncnc32)[C@H](O)C1 (single isomer, unassigned) [Example P6-01-2] ; value = 25 nM

IC50 reported for this molecule `NC(=O)CN1CCC(O)(Cn2ccc3c(N(Cc4ccc(C(F)(F)F)cc4)C4CC4)ncnc32)CC1` : 4.2 nM

`NC(=O)CN1CCC(O)(Cn2cc(F)c3c(N(Cc4ccc(C(F)(F)F)cc4)C4CC4)ncnc32)CC1` yielded IC50 of 6.9 nM

Form: molecule = NC(=O)CN1CC[C@@H](Cn2cnc3c(N(Cc4ccc(C(F)(F)F)cc4)C4CC4)ncnc32)[C@H](O)C1 (single isomer, unassigned) [Example P6-26-1] ; IC50 = 65 nM

Record summary for CN(Cc1ccc(C(F)(F)F)cc1)c1ncnc2c1c(F)cn2C[C@@H]1CCN(CC(N)=O)C[C@H]1O (racemic) : reported IC50 = 5.2 nM

Recorded result, NC(=O)CN1CC[C@](O)(Cn2ccc3c(N(Cc4ccc(C(F)(F)F)cc4)C4CC4)ncnc32)[C@@H](O)C1 (single isomer, unassigned) [Example L5-1-1-1] , IC50: 2.2 nM

For this molecule ( NC(=O)CN1CC[C@](O)(Cn2ccc3c(N(Cc4ccc(-n5cccn5)cc4)C4CC4)ncnc32)[C@@H](O)C1 (single isomer, unassigned) [Example R5-2-1] ), measured IC50 is 4.9 nM

Lookup result for NC(=O)CN1CC[C@@H](Cn2ccc3c(N4CCOC[C@@H]4c4ccc(C(F)(F)F)cn4)ncnc32)[C@H](F)C1 (single isomer, unassigned) [Example Q4-1-2] ; measured IC50: 250 nM
